Biological target: H89F RsTAL (Cereibacter sphaeroides, UniProt Q3IWB0, H89F)
Construct: mutant proteins were expressed and purified as described for wild type RsTAL; His8 (octahistidine), thrombin-cleavable (N, cleaved yes)
Assay: Inhibition of PAL activity by AIP, H89F RsTAL
Details: H89F RsTAL, substrate L-Phe; Dixon plot
parameter: Ki (nM)
The response must be a number in nM with no trailing unit.

Task item: Bench note: what Ki did NC1(P(=O)(O)O)Cc2ccccc2C1 [AIP, 2-aminoindan-2-phosphonate] show?
Reply: 600

* * *

Target: Rhodobacter sphaeroides tyrosine ammonia lyase (RsTAL) variant H89F (His89Phe) (Cereibacter sphaeroides, UniProt Q3IWB0, H89F)
Experiment: Inhibition of PAL activity of H89F RsTAL by AIP
parameter: Ki (nM)
The response must be a number in nM with no trailing unit.

Task item: Bench note: what Ki did NC1(P(=O)(O)O)Cc2ccccc2C1 [AIP, 2-aminoindan-2-phosphonate] show?
Reply: 600

* * *

Target: wild type RsTAL (Cereibacter sphaeroides, UniProt Q3IWB0)
Sequence (Q3IWB0 1-523): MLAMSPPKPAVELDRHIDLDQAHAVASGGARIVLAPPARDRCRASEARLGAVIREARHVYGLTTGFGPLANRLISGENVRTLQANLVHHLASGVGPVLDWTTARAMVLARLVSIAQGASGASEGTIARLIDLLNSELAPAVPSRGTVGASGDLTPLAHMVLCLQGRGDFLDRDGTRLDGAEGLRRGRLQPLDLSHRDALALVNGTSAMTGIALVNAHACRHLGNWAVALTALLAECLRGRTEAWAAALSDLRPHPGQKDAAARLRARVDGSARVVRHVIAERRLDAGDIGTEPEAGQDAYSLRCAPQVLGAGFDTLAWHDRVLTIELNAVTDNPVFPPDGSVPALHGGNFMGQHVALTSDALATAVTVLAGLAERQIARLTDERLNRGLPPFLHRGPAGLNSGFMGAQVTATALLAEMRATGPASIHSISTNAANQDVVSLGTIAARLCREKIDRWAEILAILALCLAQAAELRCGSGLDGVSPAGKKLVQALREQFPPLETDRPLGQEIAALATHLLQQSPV
parameter: Ki

Task item: API: value(readout= Ki, system= wild type RsTAL (Cereibacter sphaeroides, UniProt Q3IWB0), query= NC1(P(=O)(O)O)Cc2ccccc2C1 [AIP, 2-aminoindan-2-phosphonate] )
Reply: 16.3 µM

All values here come from patent US20090011400A1.
